Experiment: Pharmacokinetics and cerebral blood ratio after single administration in male ICR mice
Assay type: in vivo
Conditions: mouse, po, gavage 2.5 mg/kg, plasma
READOUT TYPE: AUC(0-inf) (ng·h/mL)
Please respond with the number in ng·h/mL and leave the unit unwritten.

Req: Name the recorded AUC(0-inf) for `C#CC(C)(C)CC(=O)Nc1c(C)cc2c(c1C)CCCCN2Cc1ccc(F)cc1` .
Resp: 541

###

Experiment: Pharmacokinetics and cerebral blood ratio after single administration in male ICR mice
Type: in vivo
Conditions: mouse, intravenous 0.5 mg/kg, plasma
READOUT TYPE: half-life (h)
Give just the numeric value; h need not be written.

Req: Which half-life value is on record for C#CC(C)(C)CC(=O)Nc1c(C)cc2c(c1C)CCCCN2Cc1ccc(F)cc1 [Compound A4] ?
Resp: 1.9
